Test: Cell viability of MDCK cells, formazan-based MTS assay
Parameters: species or system canine
Settings: dog, MDCK cells
experimental.endpoint: CC50

> print(dat)
                                   molecule  experimental.endpoint    result
1  CCCCN1C(=O)c2cccc3cc(NC(=O)[C@H]4C[C@@H](P(=O)(OCC)OCC)N(C)O4)cc(c23)C1=O (racemic) [cis-9b]                   CC50  > 100 µM

**Q:** Param item = CCOP(=O)(OCC)[C@@H]1C[C@H](C(=O)Nc2cc3c4c(cccc4c2)C(=O)N(CCN(CC)CC)C3=O)ON1C (racemic) [cis-9e] ; retrieve measured CC50.
**A:** > 100 µM

====

Test system: HEL cells
Assay: Cytotoxicity, cell morphology
Type: cell-based, human
Settings: Table 4 (VZV assays), exp. 1 and exp. 2
Measured Cytotoxicity Cell morphology MCC, listed per entry.

Some solved cases for reference:
> print(dat)
                                   compound             experimental.endpoint   result
1  CCOP(=O)(OCC)[C@@H]1C[C@H](C(=O)Nc2cc3c4c(cccc4c2)C(=O)N(CC(C)C)C3=O)ON1C (racemic) [cis-9c]  Cytotoxicity Cell morphology MCC  >100 μM
2  CCCN1C(=O)c2cccc3cc(NC(=O)[C@@H]4C[C@@H](P(=O)(OCC)OCC)N(C)O4)cc(c23)C1=O (racemic) [trans-9a]  Cytotoxicity Cell morphology MCC  >100 μM
3  CCCN1C(=O)c2cccc3cc(NC(=O)[C@H]4C[C@@H](P(=O)(OCC)OCC)N(C)O4)cc(c23)C1=O (racemic) [cis-9a]  Cytotoxicity Cell morphology MCC  >100 μM
4  CCOP(=O)(OCC)[C@@H]1C[C@H](C(=O)Nc2cc3c4c(cccc4c2)C(=O)N(CCN(C)C)C3=O)ON1C (racemic) [cis-9d]  Cytotoxicity Cell morphology MCC   100 μM
5  CCOP(=O)(OCC)[C@@H]1C[C@@H](C(=O)Nc2cc3c4c(cccc4c2)C(=O)N(CC(C)C)C3=O)ON1C [trans-9c]  Cytotoxicity Cell morphology MCC  >100 μM
6  CCOP(=O)(OCC)[C@@H]1C[C@@H](C(=O)Nc2cc3c4c(cccc4c2)C(=O)N(CCN2CCCC2)C3=O)ON1C (racemic) [trans-9f]  Cytotoxicity Cell morphology MCC   100 μM

Would you kindly look at the next entry?
**Q:** Endpoint output: Cytotoxicity Cell morphology MCC of CCOP(=O)(OCC)[C@@H]1C[C@@H](C(=O)Nc2cc3c4c(cccc4c2)C(=O)N(CCN(C)C)C3=O)ON1C (racemic) [trans-9d] . Value?
**A:** >100 μM

====

Tested on: human lymphocyte CEM
Test: Inhibition of proliferation of human T-lymphocyte CEM cells
Format: cell-based
Conditions: read-out: IC50 CEM; inhibit tumor cell proliferation by 50%
experimental.endpoint: IC50 (µM)
Just the number in µM, nothing appended.

Worked set:
> print(dat)
                                   compound  quantitative.result
1  CCOP(=O)(OCC)[C@H]1C[C@H](CN2C(=O)c3cccc4cccc(c34)C2=O)ON1C (relative stereo) [trans-10a/cis-10a (93:7)]                  111
2  CCOP(=O)(OCC)[C@H]1C[C@H](CN2C(=O)c3cccc4cc(NC(C)=O)cc(c34)C2=O)ON1C (relative stereo) [trans-10d/cis-10d (93:7)]                  125
3  CCOP(=O)(OCC)[C@H]1C[C@H](CN2C(=O)c3cccc4cc(N)cc(c34)C2=O)ON1C (relative stereo) [trans-10c/cis-10c (93:7)]                   99

**Q:** Request body: readout IC50, system human lymphocyte CEM, query CCOP(=O)(OCC)[C@H]1C[C@H](CN2C(=O)c3cccc4cc([N+](=O)[O-])cc(c34)C2=O)ON1C (relative stereo) [trans-10b/cis-10b (94:6)] . Return the value.
**A:** 51

====

Below, each entry is listed with its recorded EC50.
System: HSV and Vaccinia viruses
Experiment: microbe, parasite or virus in culture
Format: cell-based, herpes simplex virus; vaccinia virus
Details: Orthopoxvirus vaccinia, read-out: EC50 against HSV and Vaccinia viruses

Solved entries:
> print(dat)
                                   compound           target.of.assay       result
1  CCOP(=O)(OCC)[C@@H]1C[C@@H](C(=O)Nc2cc3c4c(cccc4c2)C(=O)N(CCN(C)C)C3=O)ON1C (racemic) [trans-9d]  HSV and Vaccinia viruses  45 to 58 µM
2  CCOP(=O)(OCC)[C@@H]1C[C@@H](C(=O)Nc2cc3c4c(cccc4c2)C(=O)N(CCN2CCCC2)C3=O)ON1C (racemic) [trans-9f]  HSV and Vaccinia viruses  45 to 58 µM

**Q:** For the compound CCOP(=O)(OCC)[C@@H]1C[C@H](C(=O)Nc2cc3c4c(cccc4c2)C(=O)N(CCN(C)C)C3=O)ON1C (racemic) [cis-9d] , what EC50 is on record?
**A:** 45 to 58 µM

====

Tested on: cytomegalovirus
Experiment: Antiviral activity against cytomegalovirus in HEL cells
Type: cell-based, human cytomegalovirus (HCMV)
Conditions: read-out: EC50 toward cytomegalovirus, strain not specified
experimental.endpoint: EC50

**Q:** Param readout= EC50; system= cytomegalovirus; entry= CCOP(=O)(OCC)[C@@H]1C[C@@H](C(=O)Nc2cc3c4c(cccc4c2)C(=O)N(CCN2CCCC2)C3=O)ON1C (racemic) [trans-9f] ; returns value.
**A:** 8.9 to 20 µM

====

Test system: HEL cells
Experiment: Cytotoxicity, cell morphology
Assay type: cell-based, human
Settings: Table 3 (cytomegalovirus assays), exp. 1 and exp. 2
experimental.endpoint: Cytotoxicity Cell morphology MCC

> print(dat)
                                   molecule   result
1  CCOP(=O)(OCC)[C@@H]1C[C@H](C(=O)Nc2cc3c4c(cccc4c2)C(=O)N(CCN(C)C)C3=O)ON1C (racemic) [cis-9d]  >100 μM
2  CCCCN1C(=O)c2cccc3cc(NC(=O)[C@@H]4C[C@@H](P(=O)(OCC)OCC)N(C)O4)cc(c23)C1=O (racemic) [trans-9b]   100 μM
3  CCOP(=O)(OCC)[C@@H]1C[C@H](C(=O)Nc2cc3c4c(cccc4c2)C(=O)N(CC(C)C)C3=O)ON1C (racemic) [cis-9c]  >100 μM
4  CCCCN1C(=O)c2cccc3cc(NC(=O)[C@H]4C[C@@H](P(=O)(OCC)OCC)N(C)O4)cc(c23)C1=O (racemic) [cis-9b]   100 μM

Now turn to the next molecule.
**Q:** Given CCCN1C(=O)c2cccc3cc(NC(=O)[C@@H]4C[C@@H](P(=O)(OCC)OCC)N(C)O4)cc(c23)C1=O (racemic) [trans-9a] , state its recorded Cytotoxicity Cell morphology MCC.
**A:** >100 μM
